// provenance: ChEMBL document CHEMBL5360618

TARGET SYSTEM: IL17-RE-IL-17C (Homo sapiens, UniProt Q8NFR9+Q9P0M4)
Sequence (Q9P0M4 whole entry): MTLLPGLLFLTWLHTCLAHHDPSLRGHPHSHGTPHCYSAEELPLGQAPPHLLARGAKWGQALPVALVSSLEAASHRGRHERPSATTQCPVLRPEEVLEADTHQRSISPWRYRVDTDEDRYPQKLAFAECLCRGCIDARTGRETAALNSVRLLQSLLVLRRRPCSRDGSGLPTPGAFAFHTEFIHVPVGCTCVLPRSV
Sequence (Q8NFR9 whole entry): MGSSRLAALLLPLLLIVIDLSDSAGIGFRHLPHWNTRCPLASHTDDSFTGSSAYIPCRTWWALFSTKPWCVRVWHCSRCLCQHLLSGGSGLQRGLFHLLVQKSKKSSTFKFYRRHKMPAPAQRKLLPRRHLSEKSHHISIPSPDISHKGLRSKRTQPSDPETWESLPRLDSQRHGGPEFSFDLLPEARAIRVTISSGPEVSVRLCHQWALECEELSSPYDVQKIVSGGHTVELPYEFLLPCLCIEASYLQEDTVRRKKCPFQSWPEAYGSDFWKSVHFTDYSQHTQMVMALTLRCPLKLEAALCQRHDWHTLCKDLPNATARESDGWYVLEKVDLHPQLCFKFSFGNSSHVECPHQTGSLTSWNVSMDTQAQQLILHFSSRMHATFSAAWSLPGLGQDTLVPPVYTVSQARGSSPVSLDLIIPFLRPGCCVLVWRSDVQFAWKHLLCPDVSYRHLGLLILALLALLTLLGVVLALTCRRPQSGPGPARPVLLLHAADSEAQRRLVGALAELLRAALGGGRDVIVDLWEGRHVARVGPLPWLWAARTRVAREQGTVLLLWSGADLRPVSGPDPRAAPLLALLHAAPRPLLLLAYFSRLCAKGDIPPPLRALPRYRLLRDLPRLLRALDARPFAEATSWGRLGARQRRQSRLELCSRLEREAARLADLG
ASSAY TEXT: Inhibition of IL-17C/IL-17RE interaction (unknown origin) incubated for 1.5 hrs by ELISA method
Type: protein-complex assay
pIC50: −log10 of the molar value. Positions of bridges follow the written chain, without caps; N, C: chain ends. Residues, ends and D or L forms follow the SMILES beside them.

# MOLECULE, TARGET SYSTEM, pIC50
records = [
    ("CC(C)C[C@@H]1NC(=O)[C@H](CC(N)=O)NC(=O)CNC(=O)[C@H](Cc2ccc(O)cc2)NC(=O)[C@H](CC(C)C)NC(=O)[C@H](CO)NC(=O)[C@H](Cc2ccc(O)cc2)NC(=O)[C@H](Cc2ccc(O)cc2)NC(=O)[C@H](Cc2ccc(O)cc2)NC(=O)[C@H](CC(C)C)NC(=O)[C@H](Cc2c[nH]cn2)NC(=O)[C@H](Cc2ccc(O)cc2)NC(=O)CSC[C@@H](C(=O)NCC(N)=O)NC(=O)CNC1=O ({CH2CO}-YHLYYYSLYGNLGCG-NH2; thioether N-14)", "IL17-RE-IL-17C (Homo sapiens, UniProt Q8NFR9+Q9P0M4)", 8.26),
]
